TARGET_OR_TEST_SYSTEM: T1, Hse1, P38753
T1 sequence (P38753 208-285, looked up): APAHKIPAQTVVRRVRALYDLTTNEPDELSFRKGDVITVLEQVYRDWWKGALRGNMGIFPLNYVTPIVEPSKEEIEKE
ASSAY_PROTOCOL: SPOT array
CONDITION_DESCRIPTION: median of control spots 1727
# Met = SPOT intensity below 1 (exclusive); Not met = SPOT intensity at/above 1

[
  {
    "BINDER": "PPLPRAPPVPPATFE",
    "CLASS_NAME": "Met"
  },
  {
    "BINDER": "SNRRPVPRRPSQPLN",
    "CLASS_NAME": "Not met"
  },
  {
    "BINDER": "ILARAILTIPRVLDK",
    "CLASS_NAME": "Not met"
  },
  {
    "BINDER": "SPLGAPPPPPHKDHL",
    "CLASS_NAME": "Met"
  },
  {
    "BINDER": "RRRDFGAPANKRPRR",
    "CLASS_NAME": "Not met"
  },
  {
    "BINDER": "PSRRDSLSIPRAVDA",
    "CLASS_NAME": "Met"
  },
  {
    "BINDER": "GAGERPRLVPRPINV",
    "CLASS_NAME": "Not met"
  },
  {
    "BINDER": "DHPKGPPPPPPPDEK",
    "CLASS_NAME": "Met"
  },
  {
    "BINDER": "RRRRRPHRIERPLSN",
    "CLASS_NAME": "Not met"
  },
  {
    "BINDER": "NENKKLPPAPTVFGL",
    "CLASS_NAME": "Met"
  },
  {
    "BINDER": "LSKRLPLRFPEHTSS",
    "CLASS_NAME": "Not met"
  },
  {
    "BINDER": "VQQDSLPKLPFRSWG",
    "CLASS_NAME": "Met"
  },
  {
    "BINDER": "RKNRAPPQRPRFNRD",
    "CLASS_NAME": "Not met"
  }
]
